# system_name: human PD-L1 (human) (UniProt Q9NZQ7)
# Sequence (Q9NZQ7 19-290): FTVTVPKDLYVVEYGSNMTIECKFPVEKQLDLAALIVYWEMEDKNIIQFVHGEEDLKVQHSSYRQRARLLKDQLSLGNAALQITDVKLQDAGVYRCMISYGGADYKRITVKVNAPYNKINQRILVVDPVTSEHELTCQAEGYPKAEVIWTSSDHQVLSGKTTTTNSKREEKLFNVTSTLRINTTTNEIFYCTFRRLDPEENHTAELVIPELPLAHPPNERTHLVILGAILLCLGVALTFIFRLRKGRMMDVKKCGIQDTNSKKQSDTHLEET
# protocol_description: flow cytometry, CHO/PD-L1 cells; MFI over CD80 WT IgV-Fc
measured_quantity: Fold change to WT CD80 (fold)

Example cases with answers are listed next.
| binder | measured_value |
| --- | --- |
| variant CD80 IgV-Fc (inert) H18V/E35D/M47V/V68M/A71G/D90G (Fc fusion) VIHVTKEVKEVATLSCGVNVSVEELAQTRIYWQKDKKMVLTMMSGDVNIWPEYKNRTIFDITNNLSIMILGLRPSDEGTYECVVLKYEKGAFKREHLAEVTLSVKAD | 264 |
| variant CD80 IgV-Fc (inert) H18Y/E35D/M47V/V68L/A71G/D90G (Fc fusion) VIHVTKEVKEVATLSCGYNVSVEELAQTRIYWQKDKKMVLTMMSGDVNIWPEYKNRTIFDITNNLSILILGLRPSDEGTYECVVLKYEKGAFKREHLAEVTLSVKAD | 290 |
| variant CD80 IgV-Fc (inert) H18C/A26P/E35D/M47L/V68M/A71G (Fc fusion) VIHVTKEVKEVATLSCGCNVSVEELPQTRIYWQKDKKMVLTMMSGDLNIWPEYKNRTIFDITNNLSIMILGLRPSDEGTYECVVLKYEKDAFKREHLAEVTLSVKAD | 406 |
| variant CD80 IgV-Fc (inert) H18F/A26D/E35D/D46E/M47T/V68M/A71G/D90G (Fc fusion) VIHVTKEVKEVATLSCGFNVSVEELDQTRIYWQKDKKMVLTMMSGETNIWPEYKNRTIFDITNNLSIMILGLRPSDEGTYECVVLKYEKGAFKREHLAEVTLSVKAD | 167 |
| variant CD80 IgV-Fc (inert) H18V/A26D/E35D/M47V/V68M/A71G/D90G (Fc fusion) VIHVTKEVKEVATLSCGVNVSVEELDQTRIYWQKDKKMVLTMMSGDVNIWPEYKNRTIFDITNNLSIMILGLRPSDEGTYECVVLKYEKGAFKREHLAEVTLSVKAD | 409 |

(A) CD80 E35D/D46V/M47L/V68M/L85Q/E88D IgV-Fc, EAAAK linker (Fc fusion) VIHVTKEVKEVATLSCGHNVSVEELAQTRIYWQKDKKMVLTMMSGVLNIWPEYKNRTIFDITNNLSIMILALRPSDEGTYECVVQKYDKDAFKREHLAEVTLSVKADEAAAK
(B) variant CD80 IgV-Fc (inert) H18Y/A26P/E35D/M47Y/V68I/A71G/D90G (Fc fusion) VIHVTKEVKEVATLSCGYNVSVEELPQTRIYWQKDKKMVLTMMSGDYNIWPEYKNRTIFDITNNLSIIILGLRPSDEGTYECVVLKYEKGAFKREHLAEVTLSVKAD
(C) variant CD80 IgV-Fc (inert) H18Y/A26P/E35D/M47I/V68M/A71G (Fc fusion) VIHVTKEVKEVATLSCGYNVSVEELPQTRIYWQKDKKMVLTMMSGDINIWPEYKNRTIFDITNNLSIMILGLRPSDEGTYECVVLKYEKDAFKREHLAEVTLSVKAD
*Q* Please produce an ascending ranking of these binders based on Fold change to WT CD80. Record the ranking as a list of labels in the requested order.
*A* B, C, A
(B: 165 fold, C: 330 fold, A: 533 fold)

(I) variant CD80 IgV-Fc (inert) H18V/A26K/E35D/M47L/V68M/A71G (Fc fusion) VIHVTKEVKEVATLSCGVNVSVEELKQTRIYWQKDKKMVLTMMSGDLNIWPEYKNRTIFDITNNLSIMILGLRPSDEGTYECVVLKYEKDAFKREHLAEVTLSVKAD
(II) variant CD80 IgV-Fc (inert) H18V/A26Q/E35D/M47V/V68L/A71G/D90G (Fc fusion) VIHVTKEVKEVATLSCGVNVSVEELQQTRIYWQKDKKMVLTMMSGDVNIWPEYKNRTIFDITNNLSILILGLRPSDEGTYECVVLKYEKGAFKREHLAEVTLSVKAD
*Q* Lowest Fold change to WT CD80? choose I or II Write down the label attached to your selection.
*A* II
(II: 204 fold, I: 408 fold)

(A) CD80 E35D/M47V/N48K/V68M/K89N IgV-Fc, (EAAAK)3 linker (Fc fusion) VIHVTKEVKEVATLSCGHNVSVEELAQTRIYWQKDKKMVLTMMSGDVKIWPEYKNRTIFDITNNLSIMILALRPSDEGTYECVVLKYENDAFKREHLAEVTLSVKADEAAAKEAAAKEAAAK
(B) variant CD80 IgV-Fc (inert) H18F/A26P/E35D/M47I/V68M/A71G/D90G (Fc fusion) VIHVTKEVKEVATLSCGFNVSVEELPQTRIYWQKDKKMVLTMMSGDINIWPEYKNRTIFDITNNLSIMILGLRPSDEGTYECVVLKYEKGAFKREHLAEVTLSVKAD
*Q* Between the entries labelled A and B , which has a larger Fold change to WT CD80 value on record? State the label of the item chosen.
*A* A
